reported.metric: pIC50
Bear in mind: pIC50 is minus log10 of a mol/L concentration; give just that figure.

Item: COc1ccc(-c2cc3c(nn2)-c2ccccc2C3=O)cc1 | System: Hematopoietic prostaglandin D synthase (Homo sapiens) | pIC50: 5.42

Data provenance is BindingDB's records for doi:10.1021/jm701509k.
